Molecular target: BRD4 (BD2) (Homo sapiens, UniProt O60885)
Construct: recombinant human BRD4 (BD2; aa 349-460)
Assay: AlphaScreen FRET binding assay, BRD4 (BD2)
Conditions: read-out: IC50 value for the inhibition of BRD4 (BD2)
Reported Property: IC50 (µM)
Quick reminder: number only, in µM, skip the unit.

{"columns": ["Compound", "Endpoint Result"],
 "data": [
  ["Cn1cc(-c2cccc3cc(CNc4nc(N)nc(N)c4C#N)c(N4CCOCC4)nc23)c2cc[nH]c2c1=O", 0.0207],
  ["Cc1cc(-c2cccc3cc(C4CCCN4c4ncnc(N)c4C#N)c(-c4ccccc4)nc23)cn(C)c1=O (stereo not drawn)", 0.148]
]}

q: # IC50 lookup, item Cc1cc(-c2cccc3cc(C4CCCN4c4ncnc(N)c4C#N)c(N4CCCCC4)nc23)cn(C)c1=O (stereo not drawn)
a: 0.0852

q: # query: IC50 of entry Cc1cc(-c2cccc3cc(C4CCCN4c4ncnc(N)c4C#N)c(N4CCOCC4)nc23)cn(C)c1=O (stereo not drawn)
a: 0.086

q: Consider the compound Cc1cc(-c2ccc(F)c3cc(C4CCCN4c4ncnc(N)c4C#N)c(N4CCOCC4)nc23)cn(C)c1=O (stereo not drawn) and give its measured IC50.
a: 4.97

q: Recorded IC50 of Cc1cc(-c2c(F)ccc3cc(C4CCCN4c4nc(N)nc(N)c4C#N)c(N4CCOCC4)nc23)cn(C)c1=O (stereo not drawn) , please.
a: 0.0124

q: Reported IC50 for Cn1cc(-c2cccc3cc(C4CCCN4c4nc(N)nc(N)c4C#N)c(N4CCOCC4)nc23)c2cc[nH]c2c1=O (stereo not drawn) : what is it?
a: 0.0181

q: Query (compound): Cc1cc(-c2cccc3cc(C4CCCN4c4ncnc(N)c4C#N)c(-c4cccnc4)nc23)cn(C)c1=O (stereo not drawn) ; field requested: IC50
a: 0.0466

q: // returns reported IC50 for input Cc1cc(-c2c(F)ccc3cc(C4CCCN4c4ncnc(N)c4C#N)c(N4CCOCC4)nc23)cn(C)c1=O (stereo not drawn)
a: 0.68

Source: patent US20190308963A1
